Just for reference, paper PMC10252837 is where these values come from.

- System: LK3 peptide
- experimental.details: TR-FRET competition
quantity.name: IC50 (nM)
One number for each entry, in nM.

GGCCAGAUCUGAGCCUGGGAGCUCUCUGGCC [Cy5-TAR RNA (31 nt)] yielded IC50 of 67.8

* * *

- assayed.target: TAR RNA
- experimental.details: RNA gel mobility shift assay (biotinylated TAR RNA and ARM peptide)
- Type: binding, HIV-1
- measurement.setup: 2 nM biotinylated TAR RNA, 100 nM ARM peptide
- Procedure: To determine the inhibitory effect of hit compounds on the Tat (ARM)-TAR RNA interaction, a gel shift assay was carried out using the LightShift Chemiluminescent RNA EMSA Kit (Thermo Scientific) according to the manufacturer’s instructions, but with minor modifications suitable for our experiment. […] Chemiluminescence was detected using a GBox Chemi chemi-luminometer (Syngene, Fredrick, MD, USA).
quantity.name: Kd (µM)
Answers are plain numbers, in µM.

Reported Kd for `CN1C/C=C/CCOc2cccc(c2)-c2ccnc(n2)Nc2cccc(c2)C1` was 132

* * *

- Test system: L-50 cyclic peptide
- experimental.details: TR-FRET competition
quantity.name: pIC50
Numbers only, as −log10 of the molar value.

Measured pIC50, GGCCAGAUCUGAGCCUGGGAGCUCUCUGGCC [Cy5-TAR RNA (31 nt)] : 7.02
